Origin of measurements: PubChem BioAssay

Below is a list of entries, each paired with its recorded composite z-score value.
Tested on: Fibrinogen (Alexa647-labelled)
Experiment: fibrinogen binders on compound microarrays, profiling panel, artefact control for SMM control-protein annotation, biochemical, small-molecule microarray, 635/667 nm fluorescence (AID 1131);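 note: z-score merges 667 nm fluorescence with per-spot signal-to-noise over triplicate slides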
Conditions: fibrinogen-A647 binding fluorescence, higher = more signal
Please reply with the value in numeric form only.

Solved entries:
* CCOC(=O)C=Cc1ccccc1O | 0.881
* C[C@]1(C(=O)O)c2ccccc2C(=O)N(Cc2ccc(OC(F)(F)F)cc2)[C@H]1c1ccc(CO)cc1 | 0.0748
* C=C(/C(=C/C[C@H](OC(=O)c1ccncc1)c1ccccc1OCCO)c1cnc2ccccc2c1)C(C)C | 0.958
* C#C[C@@H](CC)O[Si](C#CCCCC#N)(C(C)C)C(C)C | -0.014

Now look at this entry.
Asked: Return reported composite z-score; argument: O=C1[C@@]23C=C(Br)[C@H](C[C@@H]2COC3)[C@@]12CO2
Given back: 0.161
